// data source = patent US10287301B2

# assay_target: Human Factor D (Homo sapiens (Human))
# Sequence (P00746 26-253): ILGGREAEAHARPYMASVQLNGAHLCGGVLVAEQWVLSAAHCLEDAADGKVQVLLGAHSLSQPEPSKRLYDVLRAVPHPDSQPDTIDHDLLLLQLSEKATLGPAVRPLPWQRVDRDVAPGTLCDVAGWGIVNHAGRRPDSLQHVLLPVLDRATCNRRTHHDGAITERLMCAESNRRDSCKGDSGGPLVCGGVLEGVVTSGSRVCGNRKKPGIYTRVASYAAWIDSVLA
# protocol_notes: Human Factor D Assay
# Format: biochemical
# recorded_conditions: Human Factor D 80 nM, substrate Z-L-Lys-SBzl; read-out: IC50
Each entry below carries its reported IC50.
outcome_measure: IC50

# compound, reported_value
rows = [
    ("NC(=O)c1nn(CC(=O)N2C[C@H](F)C[C@H]2C(=O)NCc2nc3ccccc3s2)c2ccc(-c3ccnnc3)cc12", "> 10 µM"),
    ("NC(=O)c1nn(CC(=O)N2C[C@H](F)C[C@H]2C(=O)NCc2cccc(Cl)c2F)c2cnc(-c3cncnc3)cc12", "< 1 µM"),
    ("CC(=O)c1cn(CC(=O)N2C[C@H](F)C[C@H]2C(=O)Nc2cncc(Cl)n2)c2ccc(-c3ccnnc3)cc12", "< 1 µM"),
    ("CC(=O)c1cn(CC(=O)N2C[C@H](F)C[C@H]2C(=O)Nc2cccc(Br)n2)c2ccc(-c3cncnc3)cc12", "< 1 µM"),
    ("Cc1cc(NC(=O)[C@@H]2C[C@@H](F)CN2C(=O)Cn2nc(C(N)=O)c3cc(-c4ccnnc4)ccc32)n2nc(C(F)(F)F)nc2n1", "> 10 µM"),
    ("CN1CC=C(c2ccc3c(c2)c(C(N)=O)nn3CC(=O)N2C[C@H](F)C[C@H]2C(=O)Nc2cccc(Br)n2)CC1", "< 1 µM"),
    ("NC(=O)c1nn(CC(=O)N2C[C@H](F)C[C@H]2C(=O)Nc2ccc3cn[nH]c3c2)c2ccc(-c3ccnnc3)cc12", "> 10 µM"),
    ("NC(=O)c1nn(CC(=O)N2C[C@H](F)C[C@H]2C(=O)Nc2ccc(F)c(-c3nnc4n3CCCCC4)c2)c2ccc(-c3ccnnc3)cc12", "> 10 µM"),
    ("CC(=O)c1cn(CC(=O)N2C[C@H](F)C[C@H]2C(=O)Nc2ccc(F)c(-c3nnc4n3CCCCC4)c2)c2ccc(-c3ccnnc3)cc12", "< 1 µM"),
    ("Cc1cc(NC(=O)[C@@H]2C[C@@H](F)CN2C(=O)Cn2nc(C(N)=O)c3cc(-c4ccnnc4)ccc32)n(-c2ccccc2F)n1", "> 10 µM"),
    ("NC(=O)c1nn(CC(=O)N2C[C@H](F)C[C@H]2C(=O)Nc2cccc(-c3ccccc3Cl)c2F)c2ccc(-c3ccc(F)nc3)cc12", "< 1 µM"),
    ("NC(=O)c1nn(CC(=O)N2C[C@H](F)C[C@H]2C(=O)Nc2cc(O)ccn2)c2ccc(-c3ccnnc3)cc12", "> 10 µM"),
    ("CC(=O)c1cn(CC(=O)N2C[C@H](F)C[C@H]2C(=O)Nc2cccc(-c3ccccc3Cl)c2F)c2ccc(-c3cnc(C)nc3)cc12", "< 1 µM"),
    ("CC(=O)c1cn(CC(=O)N2C[C@H](F)C[C@H]2C(=O)Nc2cccc(-c3ccccc3Cl)c2F)c2ccc(-c3ccnnc3)cc12", "< 1 µM"),
    ("Cc1nc2sccn2c1-c1csc(NC(=O)[C@@H]2C[C@@H](F)CN2C(=O)Cn2nc(C(N)=O)c3cc(-c4ccnnc4)ccc32)n1", "> 10 µM"),
    ("NC(=O)c1nn(CC(=O)N2C[C@H](F)C[C@H]2C(=O)Nc2ccc(O)cn2)c2ccc(-c3ccnnc3)cc12", "> 10 µM"),
    ("NC(=O)c1nn(CC(=O)N2C[C@H](F)C[C@H]2C(=O)Nc2cccc(Br)n2)c2ccc(-c3cncnc3)cc12", "< 1 µM"),
    ("CC(=O)c1cn(CC(=O)N2C[C@H](F)C[C@H]2C(=O)Nc2ccccc2-n2nccc2C)c2ccc(-c3ccnnc3)cc12", "> 10 µM"),
    ("COc1ncc(-c2ccc3c(c2)c(C(C)=O)cn3CC(=O)N2[C@@H]3C[C@@H]3C[C@H]2C(=O)Nc2cccc(Br)n2)cn1", "< 1 µM"),
    ("CC(=O)c1cn(CC(=O)N2C[C@@H](F)C[C@@H]2C(=O)NC2CCCN(c3ccccc3Cl)C2=O)c2ccc(-c3ccnnc3)cc12 (stereo partly shown)", "< 1 µM"),
    ("CCN1Cc2ccc(NC(=O)[C@@H]3C[C@@H](F)CN3C(=O)Cn3nc(C(N)=O)c4cc(-c5ccnnc5)ccc43)cc2C1=O", "> 10 µM"),
    ("CC(=O)c1cn(CC(=O)N2C[C@H](F)C[C@H]2C(=O)Nc2nc(-c3c(C)nc4sccn34)cs2)c2ccc(-c3ccnnc3)cc12", "> 10 µM"),
    ("NC(=O)c1nn(CC(=O)N2C[C@H](F)C[C@H]2C(=O)Nc2ccccc2-c2nc3ccccc3s2)c2ccc(-c3ccnnc3)cc12", "> 10 µM"),
    ("CC(=O)c1cn(CC(=O)N2[C@@H]3C[C@@H]3C[C@H]2C(=O)Nc2cccc(Br)n2)c2ccc(-c3cnc(C)nc3)cc12", "< 1 µM"),
    ("CC(=O)c1cn(CC(=O)N2C[C@H](F)C[C@H]2C(=O)Nc2cccc(Cl)c2-n2cncn2)c2ccc(-c3ccnnc3)cc12", "> 10 µM"),
]
